biological target: PIM1 (human) (UniProt P11309); assay: KINOMEscan competition binding; details: compound 10.0 µM
Sequence (P11309 whole entry, looked up): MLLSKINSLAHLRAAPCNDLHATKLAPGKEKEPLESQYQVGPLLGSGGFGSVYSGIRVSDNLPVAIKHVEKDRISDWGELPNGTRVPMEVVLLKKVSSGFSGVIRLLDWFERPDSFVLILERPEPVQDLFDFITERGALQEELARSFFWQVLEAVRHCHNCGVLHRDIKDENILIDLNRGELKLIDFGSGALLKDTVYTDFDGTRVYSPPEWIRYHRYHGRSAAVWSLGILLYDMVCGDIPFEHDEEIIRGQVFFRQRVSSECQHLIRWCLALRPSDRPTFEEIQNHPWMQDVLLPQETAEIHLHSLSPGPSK
# kinase still bound, per cent of control per entry
reported.endpoint: kinase still bound, per cent of control (%)

CC(C)n1nc(-c2cc3cc(O)ccc3[nH]2)c2c(N)ncnc21 | 26
CCC(=O)N1CCN(c2ccc(-n3c(=O)ccc4cnc5ccc(-c6cnc7ccccc7c6)cc5c43)cc2C(F)(F)F)CC1 | 80
COC(=O)Nc1ccc(-c2nc(N3CCOCC3)c3cnn(C4CCN(C(=O)OC)CC4)c3n2)cc1 | 100
COc1ccc(-c2ccc3c(N4CCOCC4)nc(N4C[C@@H](C)O[C@@H](C)C4)nc3n2)cc1CO | 94

====

target: UniProt:O60285; assay: KINOMEscan competition binding; conditions: compound 10.0 µM
reported.endpoint: kinase still bound, per cent of control (%)

COC(=O)Nc1ccc(-c2nc(N3CCOCC3)c3cnn(C4CCN(C(=O)OC)CC4)c3n2)cc1 | 72
COc1ccc(-c2ccc3c(N4CCOCC4)nc(N4C[C@@H](C)O[C@@H](C)C4)nc3n2)cc1CO | 76
CCC(=O)N1CCN(c2ccc(-n3c(=O)ccc4cnc5ccc(-c6cnc7ccccc7c6)cc5c43)cc2C(F)(F)F)CC1 | 100
CC(C)n1nc(-c2cc3cc(O)ccc3[nH]2)c2c(N)ncnc21 | 86

====

Listing: kinase still bound, per cent of control of selected molecules
biological target: NEK3 (human) (UniProt P51956); test: KINOMEscan competition binding; settings: compound 10.0 µM
Sequence (P51956 whole entry, looked up): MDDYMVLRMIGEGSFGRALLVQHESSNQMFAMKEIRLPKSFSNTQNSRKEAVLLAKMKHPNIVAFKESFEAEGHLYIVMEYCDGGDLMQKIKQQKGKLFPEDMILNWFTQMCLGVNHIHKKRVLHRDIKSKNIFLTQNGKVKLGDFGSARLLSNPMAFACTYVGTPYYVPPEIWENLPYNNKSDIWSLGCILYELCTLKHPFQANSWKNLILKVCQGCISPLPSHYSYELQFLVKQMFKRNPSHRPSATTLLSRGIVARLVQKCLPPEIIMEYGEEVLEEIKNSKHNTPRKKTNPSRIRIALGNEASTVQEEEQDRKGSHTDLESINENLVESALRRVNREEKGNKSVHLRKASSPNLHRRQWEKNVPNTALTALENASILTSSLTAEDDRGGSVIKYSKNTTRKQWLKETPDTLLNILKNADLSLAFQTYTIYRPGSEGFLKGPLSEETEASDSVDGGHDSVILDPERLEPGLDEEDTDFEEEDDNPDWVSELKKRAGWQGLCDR
reported.endpoint: kinase still bound, per cent of control (%)

CC(C)n1nc(-c2cc3cc(O)ccc3[nH]2)c2c(N)ncnc21 | 55
COc1ccc(-c2ccc3c(N4CCOCC4)nc(N4C[C@@H](C)O[C@@H](C)C4)nc3n2)cc1CO | 61
COC(=O)Nc1ccc(-c2nc(N3CCOCC3)c3cnn(C4CCN(C(=O)OC)CC4)c3n2)cc1 | 100
CCC(=O)N1CCN(c2ccc(-n3c(=O)ccc4cnc5ccc(-c6cnc7ccccc7c6)cc5c43)cc2C(F)(F)F)CC1 | 100

====

biological target: PRKG1 (human) (UniProt Q13976); assay: KINOMEscan competition binding; conditions: compound 10.0 µM
Sequence (Q13976 whole entry, looked up): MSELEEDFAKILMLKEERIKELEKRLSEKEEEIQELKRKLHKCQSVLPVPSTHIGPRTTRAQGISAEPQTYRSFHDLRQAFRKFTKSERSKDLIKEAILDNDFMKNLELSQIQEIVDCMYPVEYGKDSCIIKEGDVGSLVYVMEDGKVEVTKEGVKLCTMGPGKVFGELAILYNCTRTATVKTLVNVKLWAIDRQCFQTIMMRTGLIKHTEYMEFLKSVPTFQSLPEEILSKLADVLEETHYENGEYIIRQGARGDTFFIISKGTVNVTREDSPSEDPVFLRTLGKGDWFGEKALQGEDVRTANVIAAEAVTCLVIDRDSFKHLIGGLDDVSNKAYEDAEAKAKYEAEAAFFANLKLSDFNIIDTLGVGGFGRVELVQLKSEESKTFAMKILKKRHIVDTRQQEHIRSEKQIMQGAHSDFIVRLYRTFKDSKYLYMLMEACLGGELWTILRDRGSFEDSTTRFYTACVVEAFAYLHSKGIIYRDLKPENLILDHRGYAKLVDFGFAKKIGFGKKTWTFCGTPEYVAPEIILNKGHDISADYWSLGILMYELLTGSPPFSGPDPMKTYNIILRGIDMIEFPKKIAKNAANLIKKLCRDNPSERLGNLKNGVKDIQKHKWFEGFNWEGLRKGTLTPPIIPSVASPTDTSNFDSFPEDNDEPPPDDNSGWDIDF
reported.endpoint: kinase still bound, per cent of control (%)

COc1ccc(-c2ccc3c(N4CCOCC4)nc(N4C[C@@H](C)O[C@@H](C)C4)nc3n2)cc1CO | 91
CC(C)n1nc(-c2cc3cc(O)ccc3[nH]2)c2c(N)ncnc21 | 100
CCC(=O)N1CCN(c2ccc(-n3c(=O)ccc4cnc5ccc(-c6cnc7ccccc7c6)cc5c43)cc2C(F)(F)F)CC1 | 86
COC(=O)Nc1ccc(-c2nc(N3CCOCC3)c3cnn(C4CCN(C(=O)OC)CC4)c3n2)cc1 | 100

====

target: UniProtKB Q15349; assay: KINOMEscan competition binding; conditions: compound 10.0 µM
Sequence (Q15349 whole entry, looked up): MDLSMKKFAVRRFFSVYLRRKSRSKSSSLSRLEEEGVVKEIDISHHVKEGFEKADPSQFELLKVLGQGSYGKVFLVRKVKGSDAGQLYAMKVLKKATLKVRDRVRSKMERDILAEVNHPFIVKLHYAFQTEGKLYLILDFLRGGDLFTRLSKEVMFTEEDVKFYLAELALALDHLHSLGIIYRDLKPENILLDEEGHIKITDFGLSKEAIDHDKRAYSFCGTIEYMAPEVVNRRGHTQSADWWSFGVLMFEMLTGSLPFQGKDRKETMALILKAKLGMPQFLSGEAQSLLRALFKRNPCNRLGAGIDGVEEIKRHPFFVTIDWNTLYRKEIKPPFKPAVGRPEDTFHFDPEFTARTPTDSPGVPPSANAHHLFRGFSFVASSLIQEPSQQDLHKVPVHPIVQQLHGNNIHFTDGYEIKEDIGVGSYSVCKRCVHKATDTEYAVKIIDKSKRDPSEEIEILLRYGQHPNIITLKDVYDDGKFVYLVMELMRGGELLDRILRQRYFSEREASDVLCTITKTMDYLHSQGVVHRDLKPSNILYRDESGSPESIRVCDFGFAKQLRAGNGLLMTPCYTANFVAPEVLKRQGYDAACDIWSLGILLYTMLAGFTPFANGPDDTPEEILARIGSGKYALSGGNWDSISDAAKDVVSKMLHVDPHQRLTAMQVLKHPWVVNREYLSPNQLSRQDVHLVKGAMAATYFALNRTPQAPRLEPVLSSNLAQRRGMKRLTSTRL
Recorded kinase still bound, per cent of control by entry
reported.endpoint: kinase still bound, per cent of control

COC(=O)Nc1ccc(-c2nc(N3CCOCC3)c3cnn(C4CCN(C(=O)OC)CC4)c3n2)cc1 | 100%
COc1ccc(-c2ccc3c(N4CCOCC4)nc(N4C[C@@H](C)O[C@@H](C)C4)nc3n2)cc1CO | 100%
CC(C)n1nc(-c2cc3cc(O)ccc3[nH]2)c2c(N)ncnc21 | 48%
CCC(=O)N1CCN(c2ccc(-n3c(=O)ccc4cnc5ccc(-c6cnc7ccccc7c6)cc5c43)cc2C(F)(F)F)CC1 | 100%

====

target: IKBKE (human) (UniProt Q14164); assay: KINOMEscan competition binding; details: compound 10.0 µM
Sequence (Q14164 whole entry, looked up): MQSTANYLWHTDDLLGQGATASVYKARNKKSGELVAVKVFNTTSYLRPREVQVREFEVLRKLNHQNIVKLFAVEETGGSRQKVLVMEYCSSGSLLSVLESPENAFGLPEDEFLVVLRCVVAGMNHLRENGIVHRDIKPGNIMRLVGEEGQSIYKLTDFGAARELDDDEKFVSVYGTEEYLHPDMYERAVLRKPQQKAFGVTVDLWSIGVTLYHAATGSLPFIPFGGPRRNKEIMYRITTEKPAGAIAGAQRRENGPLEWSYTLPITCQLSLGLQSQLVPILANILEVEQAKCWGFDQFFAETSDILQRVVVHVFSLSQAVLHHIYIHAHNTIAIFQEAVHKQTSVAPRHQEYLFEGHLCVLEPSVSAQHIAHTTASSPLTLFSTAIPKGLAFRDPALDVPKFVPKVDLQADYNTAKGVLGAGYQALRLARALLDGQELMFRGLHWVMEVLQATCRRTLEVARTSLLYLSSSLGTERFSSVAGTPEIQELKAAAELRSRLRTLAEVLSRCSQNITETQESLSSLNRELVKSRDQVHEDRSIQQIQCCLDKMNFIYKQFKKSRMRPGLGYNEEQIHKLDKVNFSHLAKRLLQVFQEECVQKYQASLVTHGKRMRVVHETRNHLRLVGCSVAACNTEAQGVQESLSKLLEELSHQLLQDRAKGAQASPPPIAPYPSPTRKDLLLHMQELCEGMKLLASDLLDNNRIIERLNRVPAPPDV
reported.endpoint: kinase still bound, per cent of control (%)

COc1ccc(-c2ccc3c(N4CCOCC4)nc(N4C[C@@H](C)O[C@@H](C)C4)nc3n2)cc1CO | 100
COC(=O)Nc1ccc(-c2nc(N3CCOCC3)c3cnn(C4CCN(C(=O)OC)CC4)c3n2)cc1 | 81
CCC(=O)N1CCN(c2ccc(-n3c(=O)ccc4cnc5ccc(-c6cnc7ccccc7c6)cc5c43)cc2C(F)(F)F)CC1 | 87
CC(C)n1nc(-c2cc3cc(O)ccc3[nH]2)c2c(N)ncnc21 | 70

====

biological target: PAK6 (human); details: compound 1.0 µM
reported.endpoint: per cent of control (%)

CCC(=O)N1CCN(c2ccc(-n3c(=O)ccc4cnc5ccc(-c6cnc7ccccc7c6)cc5c43)cc2C(F)(F)F)CC1 | 110
COC(=O)Nc1ccc(-c2nc(N3CCOCC3)c3cnn(C4CCN(C(=O)OC)CC4)c3n2)cc1 | 99
CC(C)n1nc(-c2cc3cc(O)ccc3[nH]2)c2c(N)ncnc21 | 80
COc1ccc(-c2ccc3c(N4CCOCC4)nc(N4C[C@@H](C)O[C@@H](C)C4)nc3n2)cc1CO | 75

====

This section presents molecules with their documented kinase still bound, per cent of control values.
molecular target: PRKD3 (human) (UniProt O94806); assay: KINOMEscan competition binding; conditions: compound 10.0 µM
Sequence (O94806 whole entry, looked up): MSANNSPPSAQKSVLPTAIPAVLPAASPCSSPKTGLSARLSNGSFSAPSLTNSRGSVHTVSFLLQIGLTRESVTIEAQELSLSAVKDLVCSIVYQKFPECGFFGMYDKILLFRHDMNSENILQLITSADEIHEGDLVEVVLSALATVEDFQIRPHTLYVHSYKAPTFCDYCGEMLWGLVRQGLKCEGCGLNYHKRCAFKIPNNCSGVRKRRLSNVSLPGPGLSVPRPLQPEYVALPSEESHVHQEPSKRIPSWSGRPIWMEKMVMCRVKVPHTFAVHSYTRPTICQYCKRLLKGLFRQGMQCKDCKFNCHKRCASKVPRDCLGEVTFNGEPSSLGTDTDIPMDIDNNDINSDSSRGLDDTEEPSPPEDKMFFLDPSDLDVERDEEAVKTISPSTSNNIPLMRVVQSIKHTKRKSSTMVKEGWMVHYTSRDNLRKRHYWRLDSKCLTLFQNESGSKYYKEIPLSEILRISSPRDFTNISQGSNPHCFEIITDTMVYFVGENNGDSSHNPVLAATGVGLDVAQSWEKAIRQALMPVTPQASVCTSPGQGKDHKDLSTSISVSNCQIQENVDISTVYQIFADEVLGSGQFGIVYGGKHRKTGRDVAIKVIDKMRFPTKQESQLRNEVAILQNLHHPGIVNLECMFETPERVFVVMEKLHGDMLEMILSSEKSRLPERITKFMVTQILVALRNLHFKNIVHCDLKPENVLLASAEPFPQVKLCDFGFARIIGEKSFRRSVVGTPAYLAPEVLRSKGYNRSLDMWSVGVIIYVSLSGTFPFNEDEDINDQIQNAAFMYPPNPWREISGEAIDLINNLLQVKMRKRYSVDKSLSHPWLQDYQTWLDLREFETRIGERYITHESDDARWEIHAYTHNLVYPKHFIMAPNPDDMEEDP
reported.endpoint: kinase still bound, per cent of control (%)

CCC(=O)N1CCN(c2ccc(-n3c(=O)ccc4cnc5ccc(-c6cnc7ccccc7c6)cc5c43)cc2C(F)(F)F)CC1 | 100
COc1ccc(-c2ccc3c(N4CCOCC4)nc(N4C[C@@H](C)O[C@@H](C)C4)nc3n2)cc1CO | 85
CC(C)n1nc(-c2cc3cc(O)ccc3[nH]2)c2c(N)ncnc21 | 94
COC(=O)Nc1ccc(-c2nc(N3CCOCC3)c3cnn(C4CCN(C(=O)OC)CC4)c3n2)cc1 | 100

====

molecular target: MAPK13 (human); assay: KINOMEscan competition binding; settings: compound 10.0 µM
reported.endpoint: kinase still bound, per cent of control (%)

COC(=O)Nc1ccc(-c2nc(N3CCOCC3)c3cnn(C4CCN(C(=O)OC)CC4)c3n2)cc1 | 0
CCC(=O)N1CCN(c2ccc(-n3c(=O)ccc4cnc5ccc(-c6cnc7ccccc7c6)cc5c43)cc2C(F)(F)F)CC1 | 39
CC(C)n1nc(-c2cc3cc(O)ccc3[nH]2)c2c(N)ncnc21 | 97
COc1ccc(-c2ccc3c(N4CCOCC4)nc(N4C[C@@H](C)O[C@@H](C)C4)nc3n2)cc1CO | 71

====

target: BRSK2 (human); conditions: compound 10.0 µM
Catalogue of compounds with associated per cent of control
reported.endpoint: per cent of control (%)

COc1ccc(-c2ccc3c(N4CCOCC4)nc(N4C[C@@H](C)O[C@@H](C)C4)nc3n2)cc1CO | 72
COC(=O)Nc1ccc(-c2nc(N3CCOCC3)c3cnn(C4CCN(C(=O)OC)CC4)c3n2)cc1 | 88
CCC(=O)N1CCN(c2ccc(-n3c(=O)ccc4cnc5ccc(-c6cnc7ccccc7c6)cc5c43)cc2C(F)(F)F)CC1 | 104
CC(C)n1nc(-c2cc3cc(O)ccc3[nH]2)c2c(N)ncnc21 | 4

====

molecular target: LRRK2 (human); assay: KINOMEscan competition binding; settings: compound 10.0 µM
This listing pairs molecules with measured kinase still bound, per cent of control.
reported.endpoint: kinase still bound, per cent of control (%)

CCC(=O)N1CCN(c2ccc(-n3c(=O)ccc4cnc5ccc(-c6cnc7ccccc7c6)cc5c43)cc2C(F)(F)F)CC1 | 81
COc1ccc(-c2ccc3c(N4CCOCC4)nc(N4C[C@@H](C)O[C@@H](C)C4)nc3n2)cc1CO | 100
CC(C)n1nc(-c2cc3cc(O)ccc3[nH]2)c2c(N)ncnc21 | 4.8
COC(=O)Nc1ccc(-c2nc(N3CCOCC3)c3cnn(C4CCN(C(=O)OC)CC4)c3n2)cc1 | 91

====

Listing of entries alongside the reported per cent of control.
target: MKNK2 (human) (UniProt Q9HBH9); conditions: compound 1.0 µM
Sequence (Q9HBH9 whole entry, looked up): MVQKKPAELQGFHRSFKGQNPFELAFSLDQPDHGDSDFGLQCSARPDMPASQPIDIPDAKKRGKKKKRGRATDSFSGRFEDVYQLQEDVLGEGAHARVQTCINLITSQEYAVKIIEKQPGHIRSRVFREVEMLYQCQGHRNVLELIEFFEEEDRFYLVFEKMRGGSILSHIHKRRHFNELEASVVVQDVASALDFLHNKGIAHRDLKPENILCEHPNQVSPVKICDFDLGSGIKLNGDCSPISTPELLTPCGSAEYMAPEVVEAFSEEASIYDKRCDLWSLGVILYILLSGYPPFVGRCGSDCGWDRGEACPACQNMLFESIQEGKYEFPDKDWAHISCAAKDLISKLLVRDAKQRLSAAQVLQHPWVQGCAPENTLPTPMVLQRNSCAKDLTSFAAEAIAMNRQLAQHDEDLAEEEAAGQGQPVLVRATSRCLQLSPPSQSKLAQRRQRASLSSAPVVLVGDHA
reported.endpoint: per cent of control (%)

CCC(=O)N1CCN(c2ccc(-n3c(=O)ccc4cnc5ccc(-c6cnc7ccccc7c6)cc5c43)cc2C(F)(F)F)CC1 | 112
COc1ccc(-c2ccc3c(N4CCOCC4)nc(N4C[C@@H](C)O[C@@H](C)C4)nc3n2)cc1CO | 87
COC(=O)Nc1ccc(-c2nc(N3CCOCC3)c3cnn(C4CCN(C(=O)OC)CC4)c3n2)cc1 | 115
CC(C)n1nc(-c2cc3cc(O)ccc3[nH]2)c2c(N)ncnc21 | 86

====

target: UniProt:Q99683; experiment: KINOMEscan competition binding; conditions: compound 10.0 µM
reported.endpoint: kinase still bound, per cent of control (%)

COc1ccc(-c2ccc3c(N4CCOCC4)nc(N4C[C@@H](C)O[C@@H](C)C4)nc3n2)cc1CO | 97
CCC(=O)N1CCN(c2ccc(-n3c(=O)ccc4cnc5ccc(-c6cnc7ccccc7c6)cc5c43)cc2C(F)(F)F)CC1 | 100
CC(C)n1nc(-c2cc3cc(O)ccc3[nH]2)c2c(N)ncnc21 | 100
COC(=O)Nc1ccc(-c2nc(N3CCOCC3)c3cnn(C4CCN(C(=O)OC)CC4)c3n2)cc1 | 100

====

biological target: MKNK1 (human) (UniProt Q9BUB5); experiment: KINOMEscan competition binding; settings: compound 10.0 µM
Sequence (Q9BUB5 whole entry, looked up): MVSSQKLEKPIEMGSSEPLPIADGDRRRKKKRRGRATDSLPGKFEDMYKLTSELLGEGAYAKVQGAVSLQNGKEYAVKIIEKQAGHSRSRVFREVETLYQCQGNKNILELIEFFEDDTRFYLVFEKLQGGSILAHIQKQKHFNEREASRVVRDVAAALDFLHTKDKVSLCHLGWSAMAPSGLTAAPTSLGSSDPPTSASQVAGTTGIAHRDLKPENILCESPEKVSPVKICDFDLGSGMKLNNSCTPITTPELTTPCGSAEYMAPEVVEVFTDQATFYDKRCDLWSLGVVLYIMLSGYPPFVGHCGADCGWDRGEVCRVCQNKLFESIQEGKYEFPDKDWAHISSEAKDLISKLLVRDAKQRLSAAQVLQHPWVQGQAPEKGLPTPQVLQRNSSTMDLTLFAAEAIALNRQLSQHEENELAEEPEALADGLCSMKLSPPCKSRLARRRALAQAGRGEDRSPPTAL
reported.endpoint: kinase still bound, per cent of control (%)

CC(C)n1nc(-c2cc3cc(O)ccc3[nH]2)c2c(N)ncnc21 | 19
COc1ccc(-c2ccc3c(N4CCOCC4)nc(N4C[C@@H](C)O[C@@H](C)C4)nc3n2)cc1CO | 36
CCC(=O)N1CCN(c2ccc(-n3c(=O)ccc4cnc5ccc(-c6cnc7ccccc7c6)cc5c43)cc2C(F)(F)F)CC1 | 44
COC(=O)Nc1ccc(-c2nc(N3CCOCC3)c3cnn(C4CCN(C(=O)OC)CC4)c3n2)cc1 | 37
